- test.name: Compound was evaluated for AUC after treatment with oral dose of 2 mgkg to female cynomolgus monkey
- Type: ADME
- condition.info: cercopithecidae, in vivo
readout.type: AUC

>  <molecular.string>
COc1ccc(C(=O)/C(Cc2cc(OC)c(OC)c(OC)c2)=C(\C(=O)[O-])c2ccc3nsnc3c2)cc1F.[Na+]

>  <reading>
4260 ng·h/mL

$$$$

----------
- test.name: Compound was evaluated for clearance after treatment with iv dose of 1 mgkg to male wistar rats
- Type: ADME, organism-based
- Parameters: dose 1 mgkg, route intravenous
- condition.info: rat, in vivo, 1 mg/kg

>  <molecular.string>
COc1ccc(C(=O)/C(Cc2cc(OC)c(OC)c(OC)c2)=C(\C(=O)[O-])c2ccc3nsnc3c2)cc1F.[Na+]

>  <clearance>
6.67 mL/min/kg

$$$$

----------
- test.name: Compound was evaluated for maximum concentration after treatment with oral dose of 2 mgkg to female cynomolgus monkey
- Format: ADME, organism-based
- Parameters: dose 2 mgkg, route oral
- condition.info: cercopithecidae, in vivo, 2 mg/kg
readout.type: Cmax

>  <molecular.string>
COc1ccc(C(=O)/C(Cc2cc(OC)c(OC)c(OC)c2)=C(\C(=O)[O-])c2ccc3nsnc3c2)cc1F.[Na+]

>  <readout.type>
Cmax

>  <reading>
3830 ng/mL

$$$$

----------
- System: Rattus norvegicus
- test.name: Compound was evaluated for AUC after treatment with iv dose of 1 mgkg to male wistar rats
- Format: ADME, organism-based
- Design: dose 1 mgkg, route intravenous
- condition.info: in vivo, 1 mg/kg

>  <molecular.string>
COc1ccc(C(=O)/C(Cc2cc(OC)c(OC)c(OC)c2)=C(\C(=O)[O-])c2ccc3nsnc3c2)cc1F.[Na+]

>  <AUC>
2500 ng·h/mL

$$$$

----------
- test.name: Compound was evaluated for clearance after treatment with iv dose of 1 mgkg to female wistar rats
- Type: ADME, organism-based
- Design: dose 1 mgkg, route intravenous
- condition.info: rat, in vivo, 1 mg/kg

>  <molecular.string>
COc1ccc(C(=O)/C(Cc2cc(OC)c(OC)c(OC)c2)=C(\C(=O)[O-])c2ccc3nsnc3c2)cc1F.[Na+]

>  <units.of.measure>
mL/min/kg

>  <clearance>
1.67

$$$$

----------
- test.name: Compound was evaluated for clearance after treatment with iv dose of 1 mgkg to female cynomolgus monkey
- Assay type: ADME, organism-based
- Design: dose 1 mgkg, route intravenous
- condition.info: cercopithecidae, in vivo, 1 mg/kg
readout.type: clearance (mL/min/kg)

>  <molecular.string>
COc1ccc(C(=O)/C(Cc2cc(OC)c(OC)c(OC)c2)=C(\C(=O)[O-])c2ccc3nsnc3c2)cc1F.[Na+]

>  <reading>
5

$$$$

----------
- Tested on: Rattus norvegicus
- test.name: Compound was evaluated for AUC after treatment with oral dose of 2 mgkg to female wistar rats
- Type: ADME, organism-based
- Parameters: dose 2 mgkg, route oral
- condition.info: in vivo, 2 mg/kg

>  <molecular.string>
COc1ccc(C(=O)/C(Cc2cc(OC)c(OC)c(OC)c2)=C(\C(=O)[O-])c2ccc3nsnc3c2)cc1F.[Na+]

>  <AUC>
21300 ng·h/mL

$$$$

----------
- test.name: Compound was evaluated for maximum time to reach Cmax after treatment with oral dose of 2 mgkg to female cynomolgus monkey
- Type: ADME, organism-based
- Set-up: dose 2 mgkg, route oral
- condition.info: cercopithecidae, in vivo, 2 mg/kg

>  <molecular.string>
COc1ccc(C(=O)/C(Cc2cc(OC)c(OC)c(OC)c2)=C(\C(=O)[O-])c2ccc3nsnc3c2)cc1F.[Na+]

>  <units.of.measure>
min

>  <Tmax>
30

$$$$
